Measured Kd values are reported for all entries that follow.
molecular target: T1, human GARP-proTGFβ1 complex (human, UniProt P01137 30-390; Q14392 20-627); test: BLI (Octet)
T1 construct: also called hGARP-proTGFβ1; hGARP
T1 sequence (P01137 30-390, chain 1 of 2): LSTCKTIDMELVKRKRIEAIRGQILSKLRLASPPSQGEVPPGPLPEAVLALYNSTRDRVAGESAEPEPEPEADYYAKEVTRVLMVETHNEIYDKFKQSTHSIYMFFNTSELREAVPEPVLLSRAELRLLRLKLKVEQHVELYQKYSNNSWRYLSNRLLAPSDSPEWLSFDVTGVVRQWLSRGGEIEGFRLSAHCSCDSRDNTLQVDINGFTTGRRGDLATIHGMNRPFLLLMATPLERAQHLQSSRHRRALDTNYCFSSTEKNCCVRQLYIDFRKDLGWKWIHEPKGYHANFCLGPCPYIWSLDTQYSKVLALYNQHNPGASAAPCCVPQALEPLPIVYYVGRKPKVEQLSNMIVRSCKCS
T1 sequence (Q14392 20-627, chain 2 of 2): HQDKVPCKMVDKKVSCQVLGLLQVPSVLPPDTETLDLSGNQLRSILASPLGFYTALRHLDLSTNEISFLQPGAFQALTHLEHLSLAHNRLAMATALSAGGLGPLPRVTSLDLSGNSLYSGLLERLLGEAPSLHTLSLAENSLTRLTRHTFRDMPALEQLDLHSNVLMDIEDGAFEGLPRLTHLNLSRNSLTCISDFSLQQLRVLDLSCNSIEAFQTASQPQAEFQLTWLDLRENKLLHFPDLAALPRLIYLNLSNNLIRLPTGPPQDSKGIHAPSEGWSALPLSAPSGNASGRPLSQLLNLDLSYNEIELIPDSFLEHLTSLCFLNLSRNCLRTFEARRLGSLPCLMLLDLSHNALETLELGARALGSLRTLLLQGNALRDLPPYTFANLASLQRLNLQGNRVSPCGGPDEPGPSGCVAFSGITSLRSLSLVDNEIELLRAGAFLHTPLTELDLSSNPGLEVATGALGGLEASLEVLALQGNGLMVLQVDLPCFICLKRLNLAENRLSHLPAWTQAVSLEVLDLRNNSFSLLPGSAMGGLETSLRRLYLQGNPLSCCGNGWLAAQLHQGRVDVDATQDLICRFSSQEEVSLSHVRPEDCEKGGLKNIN
Hi! Could you send only the number? It should be in nM, unit omitted.

Before answering, review these 6 worked examples.
• Ab6 (antibody, V domains shown) VH: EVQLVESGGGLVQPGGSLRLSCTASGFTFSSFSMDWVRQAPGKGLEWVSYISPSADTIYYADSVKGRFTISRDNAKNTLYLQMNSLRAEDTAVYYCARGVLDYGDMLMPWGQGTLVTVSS VL: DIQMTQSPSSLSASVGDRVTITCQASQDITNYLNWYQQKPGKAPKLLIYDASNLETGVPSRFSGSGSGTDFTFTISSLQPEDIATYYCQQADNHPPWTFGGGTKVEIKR = 0.404
• Ab30 (antibody, IgG4, V domains shown) VH: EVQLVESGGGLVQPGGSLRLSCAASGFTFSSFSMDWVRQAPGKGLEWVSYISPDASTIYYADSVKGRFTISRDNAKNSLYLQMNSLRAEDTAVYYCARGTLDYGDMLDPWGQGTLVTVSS VL: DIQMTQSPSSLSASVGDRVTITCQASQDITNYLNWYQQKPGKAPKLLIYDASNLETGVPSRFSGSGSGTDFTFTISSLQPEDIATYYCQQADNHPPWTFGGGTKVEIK = 0.833
• Ab28 (antibody, V domains shown) VH: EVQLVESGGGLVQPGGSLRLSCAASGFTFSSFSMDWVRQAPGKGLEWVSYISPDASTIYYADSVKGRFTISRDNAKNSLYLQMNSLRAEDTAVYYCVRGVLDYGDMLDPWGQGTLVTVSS VL: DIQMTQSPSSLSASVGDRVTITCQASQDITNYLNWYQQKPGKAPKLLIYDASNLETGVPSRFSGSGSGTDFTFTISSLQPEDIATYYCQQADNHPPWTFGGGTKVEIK = 0.797
• Ab25 (antibody, V domains shown) VH: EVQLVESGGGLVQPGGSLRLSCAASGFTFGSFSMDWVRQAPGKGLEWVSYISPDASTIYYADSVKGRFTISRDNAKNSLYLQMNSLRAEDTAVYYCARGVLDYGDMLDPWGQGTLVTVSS VL: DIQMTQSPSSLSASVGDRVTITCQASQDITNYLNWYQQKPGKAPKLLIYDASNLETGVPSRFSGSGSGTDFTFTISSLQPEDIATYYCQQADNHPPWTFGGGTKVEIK = 0.488
• Ab23 (antibody, V domains shown) VH: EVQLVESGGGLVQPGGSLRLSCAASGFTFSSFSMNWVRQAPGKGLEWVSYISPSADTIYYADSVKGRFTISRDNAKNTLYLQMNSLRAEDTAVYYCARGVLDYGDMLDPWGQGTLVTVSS VL: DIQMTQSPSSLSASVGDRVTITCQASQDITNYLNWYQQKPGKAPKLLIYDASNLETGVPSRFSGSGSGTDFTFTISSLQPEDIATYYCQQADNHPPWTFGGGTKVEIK = 1.34
• Ab33 (antibody, IgG4, V domains shown) VH: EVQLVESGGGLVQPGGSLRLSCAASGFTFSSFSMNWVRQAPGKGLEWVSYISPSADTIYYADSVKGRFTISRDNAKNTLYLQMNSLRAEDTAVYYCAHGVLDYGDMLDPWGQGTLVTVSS VL: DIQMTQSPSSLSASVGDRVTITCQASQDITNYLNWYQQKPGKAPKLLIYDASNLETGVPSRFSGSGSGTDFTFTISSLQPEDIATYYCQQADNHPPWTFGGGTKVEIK = 0.265

**Q:** Look at this binder and give its reported Kd. Ab15 (antibody, V domains shown) VH: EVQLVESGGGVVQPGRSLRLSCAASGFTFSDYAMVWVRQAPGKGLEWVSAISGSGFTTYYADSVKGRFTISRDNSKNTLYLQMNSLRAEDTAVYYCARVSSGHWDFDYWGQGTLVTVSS VL: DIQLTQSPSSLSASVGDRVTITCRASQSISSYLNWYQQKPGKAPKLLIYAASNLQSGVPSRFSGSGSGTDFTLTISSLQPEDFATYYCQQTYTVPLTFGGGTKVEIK
**A:** 7.01

**Q:** Look at this binder and give its reported Kd. Ab32 (antibody, IgG4, V domains shown) VH: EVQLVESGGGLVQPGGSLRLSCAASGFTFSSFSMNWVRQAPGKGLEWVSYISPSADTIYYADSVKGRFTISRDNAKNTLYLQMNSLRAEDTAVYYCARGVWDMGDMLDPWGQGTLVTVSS VL: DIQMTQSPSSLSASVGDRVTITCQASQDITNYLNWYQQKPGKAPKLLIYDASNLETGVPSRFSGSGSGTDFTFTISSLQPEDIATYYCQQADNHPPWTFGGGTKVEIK
**A:** 0.496

**Q:** Look at this binder and give its reported Kd. Ab24 (antibody, IgG4, V domains shown) VH: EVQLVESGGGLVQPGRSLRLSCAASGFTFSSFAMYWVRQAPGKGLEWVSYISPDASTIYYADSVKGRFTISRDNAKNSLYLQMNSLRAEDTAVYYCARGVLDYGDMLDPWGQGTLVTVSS VL: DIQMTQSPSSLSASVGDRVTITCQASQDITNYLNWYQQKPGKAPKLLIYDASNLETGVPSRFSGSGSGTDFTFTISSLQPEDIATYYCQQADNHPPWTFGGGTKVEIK
**A:** 0.665

**Q:** Look at this binder and give its reported Kd. Ab2 (antibody, V domains shown) VH: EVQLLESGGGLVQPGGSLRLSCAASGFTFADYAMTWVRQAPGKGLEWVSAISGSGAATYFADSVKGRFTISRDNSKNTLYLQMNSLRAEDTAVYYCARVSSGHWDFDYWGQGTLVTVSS VL: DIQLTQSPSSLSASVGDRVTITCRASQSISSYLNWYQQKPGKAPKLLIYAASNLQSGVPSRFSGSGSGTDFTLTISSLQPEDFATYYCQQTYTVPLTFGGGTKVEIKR
**A:** 0.778
